Entry source: patent US7232837B2

- measurement target: α2 adrenergic receptors
- assay text: Alpha-2 binding, 125iodoclonidine, canine brain (frontal cortex) membranes
- Parameters: species or system canine (mongrel dogs)
- experimental setup: Scatchard Analysis, canine cerebral cortex membranes; read-out: Kd2 (low affinity)
endpoint name: Kd (nM)
Numbers only, in nM.

stdin: Report Kd for Clc1cc(I)cc(Cl)c1NC1=NCCN1 [p-iodoclonidine]
stdout: 0.87

====

- measurement target: α2 adrenergic receptors
- assay text: Alpha-2 binding, 125iodoclonidine, canine brain (frontal cortex) membranes
- Parameters: species or system canine (mongrel dogs)
- experimental setup: Scatchard Analysis, canine cerebral cortex membranes; read-out: Kd1 (high affinity)
endpoint name: pKd
Numbers only, as −log10 of the molar value.

stdin: Report pKd for Clc1cc(I)cc(Cl)c1NC1=NCCN1
stdout: 9.82

====

- measurement target: α2 adrenergic receptors
- assay text: Alpha-2 binding, 125iodoclonidine, canine brain (frontal cortex) membranes
- Set-up: species or system canine (mongrel dogs)
- experimental setup: Saturation Analysis, canine cerebral cortex membranes; read-out: Kd2 (low affinity)
endpoint name: pKd
Answers are plain numbers, as −log10 of the molar value.

stdin: Report pKd for Clc1cc(I)cc(Cl)c1NC1=NCCN1
stdout: 8.52

====

- measurement target: α2 adrenergic receptors
- assay text: Alpha-2 binding, 125iodoclonidine, canine brain (frontal cortex) membranes
- Design: species or system canine (mongrel dogs)
- experimental setup: Saturation Analysis, canine cerebral cortex membranes; read-out: Kd1 (high affinity)
endpoint name: pKd
Numbers only, as −log10 of the molar value.

stdin: Report pKd for Clc1cc(I)cc(Cl)c1NC1=NCCN1
stdout: 9.82

====

- measurement target: β2 adrenergic receptors (Canis lupus familiaris, UniProt P54833)
- Construct: Canine lung membranes (10 μg protein/100 ul) were incubated with ^125ICYP; from tissue; host or cells: mongrel dog lung membranes
- Sequence (P54833 whole entry): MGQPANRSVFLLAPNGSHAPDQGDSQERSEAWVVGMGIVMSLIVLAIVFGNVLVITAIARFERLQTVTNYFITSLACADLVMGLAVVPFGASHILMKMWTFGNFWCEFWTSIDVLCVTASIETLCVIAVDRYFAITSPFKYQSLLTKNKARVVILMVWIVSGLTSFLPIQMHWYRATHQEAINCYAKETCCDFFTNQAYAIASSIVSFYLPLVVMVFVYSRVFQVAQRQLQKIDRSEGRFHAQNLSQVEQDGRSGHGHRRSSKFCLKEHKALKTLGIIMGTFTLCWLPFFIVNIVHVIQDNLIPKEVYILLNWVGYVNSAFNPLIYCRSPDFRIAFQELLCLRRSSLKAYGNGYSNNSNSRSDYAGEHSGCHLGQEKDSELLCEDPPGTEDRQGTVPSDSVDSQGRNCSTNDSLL
- assay text: Beta-2 binding, 125iodocyanopindolol (ICYP), canine lung membranes
- Parameters: species or system canine (mongrel dogs)
- experimental setup: Saturation Analysis, Summary
endpoint name: pKd
One number for each entry, as −log10 of the molar value.

stdin: Report pKd for CC(C)(C)NCC(O)COc1cccc2[nH]c(C#N)c(I)c12 (stereo not shown) [ICYP, iodocyanopindolol]
stdout: 11.02

====

- measurement target: β2 adrenergic receptors (Canis lupus familiaris, UniProt P54833)
- Construct: Canine lung membranes (10 μg protein/100 ul) were incubated with ^125ICYP; from tissue; host or cells: mongrel dog lung membranes
- assay text: Beta-2 binding, 125iodocyanopindolol (ICYP), canine lung membranes
- Design: species or system canine (mongrel dogs)
- experimental setup: Scatchard Analysis, Run 2
endpoint name: Kd (pM)
Give bare numbers, in pM.

stdin: Report Kd for CC(C)(C)NCC(O)COc1cccc2[nH]c(C#N)c(I)c12 (stereo not shown) [ICYP, iodocyanopindolol]
stdout: 7.8
